- Tested target: UniProt:P14416
- Sequence (P14416 1-414 isoform P14416-2): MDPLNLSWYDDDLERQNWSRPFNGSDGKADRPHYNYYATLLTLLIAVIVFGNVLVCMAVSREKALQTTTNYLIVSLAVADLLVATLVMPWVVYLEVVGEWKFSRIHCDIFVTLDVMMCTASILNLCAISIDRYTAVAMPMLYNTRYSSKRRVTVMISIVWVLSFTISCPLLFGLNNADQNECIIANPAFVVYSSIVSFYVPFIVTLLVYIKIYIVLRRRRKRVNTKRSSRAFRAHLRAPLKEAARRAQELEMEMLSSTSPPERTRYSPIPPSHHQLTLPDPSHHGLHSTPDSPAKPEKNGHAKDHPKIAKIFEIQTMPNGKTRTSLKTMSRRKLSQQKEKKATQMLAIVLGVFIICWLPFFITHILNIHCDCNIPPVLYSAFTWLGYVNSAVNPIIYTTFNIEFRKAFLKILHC
Assay readout: Ki (µM)
Report only the number, with the unit µM understood.

Entry `CCCN(CCc1cccs1)[C@H]1CCc2c(O)cccc2C1` , tested on UniProt:P14416, has a reported Ki of 0.0185
